In this section, each of the compounds is paired with its reported Remaining, (T = 60 min).
Test: Liver microsomal stability test, human
Assay type: in vitro ADME
Settings: Human liver microsomes, 60 min
Experimental: • 1: Add 10 μL of working solutions of test product or reference product and 80 μL of microsomal working solution (liver microsomal protein concentration of 0.5 mg/mL) to wells of TO, T5, T10, T20, T30, T60, and NCF60, and only microsomal working solution is added to the Blank60 wells. […]
Output spec: scalar in %, unitless text.

Consider the worked cases shown below.
Cc1cc(-c2ccccc2)c(C(=O)C(=O)Nc2ccc3c(c2)CCC2CN(c4ncc(F)cn4)CCN32)n1C (stereo not shown) = 26.6
Cc1cc(-c2ccccc2)c(C(=O)C(=O)Nc2ccc3c(c2)C[C@H]2CN(c4ncc(F)cn4)CCN32)n1C = 43.4

Inquiry: Reported Remaining, (T = 60 min) for Cc1cc(-c2ccccc2)c(C(=O)C(=O)Nc2ccc3c(c2)C[C@@H]2CN(c4ncc(F)cn4)CCN32)n1C : what is it?
Reply text: 34.5

Inquiry: Thanks! And Cc1cc(-c2ccccc2)c(C(=O)C(=O)Nc2cc(F)c3c(c2)OC[C@H]2CN(c4ncc(F)cn4)CCN32)n1C ?
Reply text: 20.4
